Measured pIC50 accompanies every entry in the list below.
target: human DGKζ (Homo sapiens); construct: TVMV protease cleavage site (C); Hexa-His (C); made in house; host or cells: Sf9 insect cells (baculovirus, Bac-to-Bac); assay: DGKζ LIPGLO assay (extruded liposome substrate), in vitro DGK inhibition; assay type: biochemical; details: liposome (LIPGLO) assay; read-out: DGKz LIPGLO IC50
// pIC50 here means minus log10 of the molar concentration (mol/L)

Check out these entries, answers already filled in.
Name the reported pIC50 value associated with the molecule CC[C@@H]1CN(c2cc(=O)n(C)c3ccc(C#N)nc23)[C@@H](C)CN1C(c1ccc(OC(F)(F)F)cc1)c1ccccn1 (single isomer, unassigned) [Example 341]
6.26

Looking for the measured pIC50 of C[C@H]1CN(C(c2ccc(F)cc2)c2ccon2)[C@H](CO)CN1c1cc(=O)n(C)c2ccc(C#N)nc12 (single isomer, unassigned) [Example 1392] , can you help?
5.42

Please report the recorded pIC50 for CC(c1cccc(OC(F)(F)F)c1)N1C[C@H](C)N(c2cc(=O)n(C)c3ccc(C#N)nc23)C[C@H]1C (single isomer, unassigned) [Example 1267] .
6.96

# get_value(readout='pIC50', item= CC(c1ccc(OC(F)(F)F)c(F)c1)N1C[C@H](C)N(c2cc(=O)n(C)c3ccc(C#N)nc23)C[C@H]1C (single isomer, unassigned) [Example 1270] )
5.57

With those in mind, consider the next molecule.
Return reported pIC50; argument: Cn1c(=O)c(Cl)c(N2CCN(C(c3ccc(F)cc3)c3ccc(F)cc3)C(CO)C2)c2nc(C#N)ccc21 (single isomer, unassigned) [Example 101]
5.80

====

Property: pIC50; scope: individual molecules
biological target: human DGKζ (Homo sapiens, UniProt Q13574); construct: TVMV protease cleavage site (C); Hexa-His (C); made in house; host or cells: Sf9 insect cells (baculovirus, Bac-to-Bac); experiment: DGKζ LIPGLO assay (extruded liposome substrate), in vitro DGK inhibition; assay type: biochemical; details: liposome (LIPGLO) assay; read-out: DGKz LIPGLO IC50
Sequence (Q13574 with tags, fused parts or gaps isoform Q13574-4): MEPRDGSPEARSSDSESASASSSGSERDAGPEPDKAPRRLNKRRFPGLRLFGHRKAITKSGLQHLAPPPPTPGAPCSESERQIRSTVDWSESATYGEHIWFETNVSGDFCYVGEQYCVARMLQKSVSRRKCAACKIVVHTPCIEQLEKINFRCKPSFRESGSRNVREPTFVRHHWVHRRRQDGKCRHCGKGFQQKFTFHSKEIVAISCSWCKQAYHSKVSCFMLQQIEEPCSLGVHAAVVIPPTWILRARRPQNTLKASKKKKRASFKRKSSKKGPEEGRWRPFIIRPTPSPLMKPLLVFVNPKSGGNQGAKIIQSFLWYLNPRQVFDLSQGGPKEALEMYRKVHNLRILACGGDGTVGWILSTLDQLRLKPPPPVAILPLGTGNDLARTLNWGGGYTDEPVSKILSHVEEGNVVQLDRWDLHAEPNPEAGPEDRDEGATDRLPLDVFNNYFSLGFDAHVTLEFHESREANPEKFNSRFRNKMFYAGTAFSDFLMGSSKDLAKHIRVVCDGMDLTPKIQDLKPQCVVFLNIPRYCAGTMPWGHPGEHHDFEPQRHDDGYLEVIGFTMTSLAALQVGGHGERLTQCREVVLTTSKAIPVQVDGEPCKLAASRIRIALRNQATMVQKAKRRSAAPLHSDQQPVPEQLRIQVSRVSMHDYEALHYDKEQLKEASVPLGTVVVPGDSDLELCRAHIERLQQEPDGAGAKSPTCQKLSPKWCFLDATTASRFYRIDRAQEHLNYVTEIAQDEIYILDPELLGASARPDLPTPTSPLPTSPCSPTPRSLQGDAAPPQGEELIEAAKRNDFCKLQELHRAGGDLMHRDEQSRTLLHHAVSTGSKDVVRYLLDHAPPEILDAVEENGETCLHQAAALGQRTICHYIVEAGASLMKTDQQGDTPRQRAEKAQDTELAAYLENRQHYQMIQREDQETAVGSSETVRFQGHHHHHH
For clarity, pIC50 is expressed as the negative log10 of concentration in mol/L.

Examples with their reported pIC50 follow.
Reported pIC50, molecule CC(c1cc(OC(F)F)ccc1F)N1C[C@H](C)N(c2cc(=O)n(C)c3ccc(C#N)nc23)C[C@H]1C (single isomer, unassigned) [Example 1228] : ____
5.52

Give its pIC50 value. Item: CC(c1ccc(OC(F)(F)F)c(F)c1)N1C[C@H](C)N(c2cc(=O)n(C)c3ccc(C#N)nc23)C[C@H]1C (single isomer, unassigned) [Example 1269]
6.33

Query (molecule): COCCOC[C@@H]1CN(c2cc(=O)n(C)c3ccc(C#N)nc23)[C@@H](C)CN1C(C)c1ccc(OC(F)(F)F)cc1 (single isomer, unassigned) [Example 1405] ; field requested: pIC50
7.24

Would you mind telling me what pIC50 value was observed for Cc1ccc(C(c2ccc(C)c(Cl)c2)N2C[C@H](C)N(c3cc(=O)n(C)c4ccc(C#N)nc34)C[C@H]2C)nc1 (single isomer, unassigned) [Example 380] ?
5.80

Would you kindly share the measured pIC50 for COc1ccc(C(C)N2C[C@H](C)N(c3cc(=O)n(C)c4ccc(C#N)nc34)C[C@H]2C)nc1 (single isomer, unassigned) [Example 645] ?
4.74

Sample CC(c1ccc(OC(F)(F)F)cc1)N1C[C@H](C)N(c2cc(=O)n(C)c3ccc(C#N)nc23)C[C@H]1CC#N (single isomer, unassigned) [Example 1411] — what was its pIC50?
5.92

// query pIC50 value for entry C[C@@H]1CN(c2cc(=O)n(C)c3ccc(C#N)nc23)[C@@H](C)CN1C(c1ccc(F)cc1)c1ccon1 (single isomer, unassigned) [Example 707]
5.77

Give its pIC50 value. Item: CC(c1ccc(OC(F)F)cc1)N1C[C@H](C)N(c2c(C#N)c(=O)n(C)c3ccc(C#N)nc23)C[C@H]1C (single isomer, unassigned) [Example 1375]
6.05

***
GET /values?readout=pIC50&item= C[C@@H]1CN(c2cc(=O)n(C)c3ccc(C#N)nc23)[C@@H](C)CN1C(c1ccc(F)cc1)c1cccc(F)c1 (single isomer, unassigned) [Example 249]
6.36

Entry COC[C@@H]1CN(c2cc(=O)n(C)c3ccc(C#N)nc23)[C@@H](C)CN1C(c1ccc(F)cc1)c1nc(C2CC2)cs1 (single isomer, unassigned) [Example 1395] has what pIC50?
7.15

Entry CC(c1cccc2c1OC(F)(F)O2)N1C[C@H](C)N(c2cc(=O)n(C)c3ccc(C#N)nc23)C[C@H]1C (single isomer, unassigned) [Example 1217] : reported pIC50 = ?
5.68

====

# pIC50 annotations
biological target: human DGKα (Homo sapiens); construct: TVMV protease cleavage site (C); Hexa-His (C); made in house; host or cells: Sf9 insect cells (baculovirus, Bac-to-Bac); experiment: DGKα LIPGLO assay (extruded liposome substrate), in vitro DGK inhibition; type: biochemical; settings: DGKa LIPGLO IC50, DGKα liposome (LIPGLO) assay
Notebook: values listed as pIC50 are -log10 of the concentration (mol/L).

So what's the measured pIC50 for this one? CC(c1ccc(Cl)cc1)N1C[C@H](C)N(c2c(C#N)c(=O)n(C)c3ccc(C#N)nc23)C[C@H]1C (single isomer, unassigned) [Example 792]
5.82

// below: pIC50 requested for another compound
// pIC50 lookup, key: CC(c1ccc(Cl)cc1)N1C[C@H](C)N(c2c(C#N)c(=O)n(C)c3ccc(C#N)nc23)C[C@H]1C (single isomer, unassigned) [Example 791]
5.72

====

molecular target: human DGKα (Homo sapiens, UniProt P23743); construct: TVMV protease cleavage site (C); Hexa-His (C); made in house; host or cells: Sf9 insect cells (baculovirus, Bac-to-Bac); assay: DGKα LIPGLO assay (extruded liposome substrate), in vitro DGK inhibition; assay type: biochemical; conditions: liposome (LIPGLO) assay; read-out: DGKa LIPGLO IC50
Sequence (P23743 with tags, fused parts or gaps): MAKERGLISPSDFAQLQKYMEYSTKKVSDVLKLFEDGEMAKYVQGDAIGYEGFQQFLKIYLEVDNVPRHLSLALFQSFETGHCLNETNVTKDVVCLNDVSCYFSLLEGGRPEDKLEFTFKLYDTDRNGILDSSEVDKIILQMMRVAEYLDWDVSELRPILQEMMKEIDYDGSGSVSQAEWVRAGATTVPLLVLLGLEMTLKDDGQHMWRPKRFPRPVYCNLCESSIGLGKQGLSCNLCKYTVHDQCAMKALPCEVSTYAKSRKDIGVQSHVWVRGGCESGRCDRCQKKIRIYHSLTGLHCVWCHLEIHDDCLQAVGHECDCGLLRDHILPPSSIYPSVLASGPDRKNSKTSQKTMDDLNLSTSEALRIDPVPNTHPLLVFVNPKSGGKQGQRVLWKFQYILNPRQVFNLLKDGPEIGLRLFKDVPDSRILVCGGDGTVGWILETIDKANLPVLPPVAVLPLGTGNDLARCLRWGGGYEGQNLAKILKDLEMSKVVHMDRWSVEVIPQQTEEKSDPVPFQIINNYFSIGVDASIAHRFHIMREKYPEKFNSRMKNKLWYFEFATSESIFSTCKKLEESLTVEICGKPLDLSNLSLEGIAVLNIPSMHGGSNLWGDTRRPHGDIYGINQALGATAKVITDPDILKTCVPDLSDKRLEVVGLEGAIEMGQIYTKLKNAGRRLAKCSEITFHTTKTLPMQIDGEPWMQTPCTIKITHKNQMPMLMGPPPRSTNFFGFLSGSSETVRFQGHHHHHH
IC50 overview
Report the value in nM with no unit label.

Use the examples below as a reference point.
Query for human DGKα (Homo sapiens, UniProt P23743): what IC50 does the record show for CC(C)Oc1ccccc1CN1C[C@H](C)N(c2cc(=O)n(C)c3ccc(C#N)nc23)C[C@H]1C ?
390

Notebook: pull reported IC50 for human DGKα (Homo sapiens, UniProt P23743), entry Cc1ccc(C(c2cccc(F)c2)N2C[C@H](C)N(c3cc(=O)n(C)c4ccc(C#N)nc34)C[C@H]2CO)nc1 (stereo partly shown) [Example 1153]
6600

GET /values?readout=IC50&system=human DGKα (Homo sapiens, UniProt P23743)&item= COC[C@@H]1CN(c2cc(=O)n(C)c3ccc(C#N)nc23)[C@@H](C)CN1C(c1ccc(C)cc1)c1ccc(C)cc1
2500

IC50 of CC[C@H]1CN(C(c2ccc(Cl)cc2)c2ccc(F)cn2)[C@H](CC)CN1c1cc(=O)n(C)c2ccc(C#N)nc12 (single isomer, unassigned) [Example 1034] on human DGKα (Homo sapiens, UniProt P23743)?
64

Notebook entry, human DGKα (Homo sapiens, UniProt P23743) assay: IC50 of CCC(c1ccc(C2CC2)cc1F)N1C[C@H](CC)N(c2cc(=O)n(C)c3ccc(C#N)nc23)C[C@H]1CC (single isomer, unassigned) [Example 1359] = ?
52

Others:
API: value(readout=IC50, system=human DGKα (Homo sapiens, UniProt P23743)) for record C[C@@H]1CN(c2cc(=O)n(C)c3ccc(C#N)nc23)[C@@H](C)CN1C(c1ccc(F)c(F)c1)c1ccccn1 (mixture of isomers) [Example 366]
570

====

target: human DGKζ (Homo sapiens, UniProt Q13574); construct: TVMV protease cleavage site (C); Hexa-His (C); made in house; host or cells: Sf9 insect cells (baculovirus, Bac-to-Bac); assay: DGKζ LIPGLO assay (extruded liposome substrate), in vitro DGK inhibition; assay type: biochemical; conditions: liposome (LIPGLO) assay; read-out: DGKz LIPGLO IC50
TEST_READOUT: pIC50
pIC50 is a log-scale quantity: -log10 of the concentration expressed in molar.

A selection of reference data follows.
// pIC50 lookup, key: CC[C@@H]1CN(c2cc(=O)n(C)c3ccc(C#N)nc23)[C@@H](CC)CN1Cc1ccc(F)cc1 [Example 1061]
7.00

# lookup: pIC50 of COC(=O)C1CN(c2cc(=O)n(C)c3ccc(C#N)nc23)CCN1C(c1ccc(Cl)cc1)c1ccc(Cl)cc1 (single isomer, unassigned) [Example 96]
4.85

Suppose we examine the compound C[C@@H]1CN(c2cc(=O)n(C)c3ccc(C#N)nc23)[C@@H](C)CN1C(c1cccc(F)c1)c1ccc(C(F)(F)F)cn1 (stereo partly drawn) [Example 370] ; what pIC50 value has been reported?
6.12

Consider the compound shown here: C[C@@H]1CN(c2cc(=O)n(C)c3ccc(C#N)nc23)[C@@H](C)CN1Cc1ccc(OC(F)(F)F)cc1F [Example 243] What is its recorded pIC50?
5.72

Further cases:
Name the reported pIC50 value associated with the compound C[C@@H]1CN(c2cc(=O)n(C)c3ccc(C#N)nc23)[C@@H](C)CN1Cc1cc(-c2ccccc2C#N)no1 [Example 1427]
5.28

Param item = CCC(c1ccc(C2CC2)cc1F)N1C[C@H](CC)N(c2cc(=O)n(C)c3ccc(C#N)nc23)C[C@H]1CC (single isomer, unassigned) [Example 1360] ; retrieve measured pIC50.
6.96

What does the data say about its pIC50? Entry: CC[C@@H]1CN(c2cc(=O)n(C)c3ccc(C#N)nc23)[C@@H](C)CN1C(C)c1ccc(C(F)(F)F)cc1 (single isomer, unassigned) [Example 1093]
6.74

GET /values?readout=pIC50&item= COc1cc(F)ccc1C(c1ccc(F)cc1)N1C[C@H](C)N(c2c(C#N)c(=O)n(C)c3ccc(C#N)nc23)C[C@H]1C (single isomer, unassigned) [Example 112]
5.59

Look up pIC50 for this compound: CCc1ccccc1C(c1ccc(F)cc1)N1C[C@H](C)N(c2cc(=O)n(C)c3ccc(OC)nc23)C[C@H]1C (single isomer, unassigned) [Example 236]
4.96

# pIC50 lookup, item Cn1c(=O)cc(N2CCN(C(c3ccc(F)cc3)c3ccc(F)cc3)CC2C#N)c2nc(C#N)ccc21 (single isomer, unassigned) [Example 144]
5.62

What value of pIC50 has been reported for the following compound? CCC(c1cc(Cl)cc2c1OCC2)N1C[C@H](C)N(c2cc(=O)n(C)c3ccc(C#N)nc23)C[C@H]1C (single isomer, unassigned) [Example 357]
6.05

Bench note: what pIC50 did Cn1c(=O)cc(N2CCN(C(c3ccc(F)cc3)c3ccc(F)cc3)C(C(N)=O)C2)c2nc(C#N)ccc21 (single isomer, unassigned) [Example 41] show?
4.34

Reference source for all entries: patent US10669272B2
